Each item that follows carries a reported protein stability index.
- ASSAY DETAILS: protein stability index of a GFP-peptide fusion (GPS, HEK-293T) (PSI 1-6); higher = more stable;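 further: 24-mer peptide tiles fused after GFP, lentivirally expressed, FACS-sorted into six equal bins by GFP/DsRed ratio, decoded by Illumina sequencing, PSI is the read-weighted mean bin number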
- MEASUREMENT CONTEXT: treatment: DMSO; c terminus: a fixed tail appended

Some solved entries appear below for comparison.
{"columns": ["CONSTRUCT SEQUENCE", "protein stability index"],
 "data": [
  ["SAASGARFPLDSAQDPDVGTNTVS [PCDHGC5]", 5.39],
  ["SIESIKWMIEEKATITSRGSSLSG [LURAP1L]", 3.1],
  ["QISMELAKVNYVKNNICFMSHHQE [SLC2A12]", 2.6],
  ["SSSEQLQCCQTEIIELRRTVNALE [KRT36]", 3.58],
  ["QQFQPAGTDQVCVLEWGAEGVAGK [FCHSD1]", 4.46],
  ["MLEKMDLKEFDLDALLGIDDLETM [ATF4]", 3.85]
]}

Query: Look at this sequence and give its reported protein stability index. ACTRSLLGDPPPLLTLPRPPLSGA [HDAC6]
Result: 3.44

Query: Look at this sequence and give its reported protein stability index. LDMSQNVSLVTAELSKDAQASAAP [SLC29A1]
Result: 5.16

Query: Look at this sequence and give its reported protein stability index. KKVLKKMLKFLAKGEVPKGSCEDE [ATE1]
Result: 2.11

Query: Look at this sequence and give its reported protein stability index. DKRGETTSASLLNAGLSHTEYQIV [SLC2A12]
Result: 3.69

Query: Look at this sequence and give its reported protein stability index. ECQLTHSHPACPLEFAYYFRPGHL [ZSWIM9]
Result: 2.57

Query: Look at this sequence and give its reported protein stability index. GSNRSGSDRRKEKDPKAGDSKSGG [DVL3]
Result: 5.63

Query: Look at this sequence and give its reported protein stability index. QEMVVSSLVIGALLASLTGGVLID [SLC2A12]
Result: 3.61
